- TARGET: T1, trastuzumab (Herceptin)
- T1 construct: also called Tmab; not shown: the constant regions
- ASSAY_REMARKS: dissociation ELISA on covalently immobilised trastuzumab, 1 uM 1HE in the buffer
As shown below, each of these binders has a reported T1/2 value.
// return numeric value only (unit: h, not printed)

BINDER	T1/2 [h]
2H2 (VHH, also called 1HE mutant 2H2) VHH: EVQLVESGDGLVQAGDSLTLSCAASGRAFSSVAMGWFRQAPGKERKFVANISWNGDSTYYTDSVKGRFTISRDNAKNTVYLQMSSLKPEDTAVYYCAADVRWTGDGHRADYWGQGTQVTVSS	5.4

The record that follows has no T1/2 shown yet.
Give the measured T1/2 for 2D11 (VHH, also called 1HE mutant 2D11) VHH: EVQLVESGGGLVQAGDSLTLSCAASGRTFSSVAMGWFRQAPGKERKFVANISWNGDSTYYTDSVKGRFTISRDNARNTVYLQMSSLKPEDTAVYYCAADVRWTGDGHRADYWGQGTQVTVSS
8.8

Where do the numbers come from? From patent US20220315670A1.
